- experimental target: recombinant integrin α4β7 (Homo sapiens, UniProt P13612+P26010, DEL724-798)
- Construct: purchased R&D Systems 5397-A3-050
- Sequence (P13612 34-970 limits assumed, stated change not applied): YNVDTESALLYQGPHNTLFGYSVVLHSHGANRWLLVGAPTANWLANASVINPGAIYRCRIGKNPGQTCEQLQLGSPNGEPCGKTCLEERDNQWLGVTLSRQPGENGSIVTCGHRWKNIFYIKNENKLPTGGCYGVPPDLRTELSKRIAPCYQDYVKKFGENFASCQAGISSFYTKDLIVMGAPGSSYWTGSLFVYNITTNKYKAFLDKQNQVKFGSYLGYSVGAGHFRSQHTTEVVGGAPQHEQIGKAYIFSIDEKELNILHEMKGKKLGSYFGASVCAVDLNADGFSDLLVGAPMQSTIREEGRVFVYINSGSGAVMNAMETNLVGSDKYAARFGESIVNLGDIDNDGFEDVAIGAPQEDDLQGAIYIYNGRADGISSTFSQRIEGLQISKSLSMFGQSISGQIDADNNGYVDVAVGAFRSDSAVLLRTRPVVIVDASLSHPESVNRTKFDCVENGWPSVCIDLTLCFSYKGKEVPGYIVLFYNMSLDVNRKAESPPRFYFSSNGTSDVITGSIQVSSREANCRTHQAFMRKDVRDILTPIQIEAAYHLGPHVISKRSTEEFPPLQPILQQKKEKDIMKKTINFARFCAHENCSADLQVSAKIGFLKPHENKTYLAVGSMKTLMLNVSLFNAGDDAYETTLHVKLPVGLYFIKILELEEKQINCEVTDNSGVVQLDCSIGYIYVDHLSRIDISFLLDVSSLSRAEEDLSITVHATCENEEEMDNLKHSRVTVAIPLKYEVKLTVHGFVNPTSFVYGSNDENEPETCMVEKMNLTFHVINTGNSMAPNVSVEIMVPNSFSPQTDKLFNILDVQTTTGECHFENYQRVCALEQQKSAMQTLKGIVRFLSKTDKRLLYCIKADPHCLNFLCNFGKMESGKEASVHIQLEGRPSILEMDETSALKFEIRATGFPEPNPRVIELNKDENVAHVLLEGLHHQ
- Sequence (P26010 20-723 limits assumed, stated change not applied): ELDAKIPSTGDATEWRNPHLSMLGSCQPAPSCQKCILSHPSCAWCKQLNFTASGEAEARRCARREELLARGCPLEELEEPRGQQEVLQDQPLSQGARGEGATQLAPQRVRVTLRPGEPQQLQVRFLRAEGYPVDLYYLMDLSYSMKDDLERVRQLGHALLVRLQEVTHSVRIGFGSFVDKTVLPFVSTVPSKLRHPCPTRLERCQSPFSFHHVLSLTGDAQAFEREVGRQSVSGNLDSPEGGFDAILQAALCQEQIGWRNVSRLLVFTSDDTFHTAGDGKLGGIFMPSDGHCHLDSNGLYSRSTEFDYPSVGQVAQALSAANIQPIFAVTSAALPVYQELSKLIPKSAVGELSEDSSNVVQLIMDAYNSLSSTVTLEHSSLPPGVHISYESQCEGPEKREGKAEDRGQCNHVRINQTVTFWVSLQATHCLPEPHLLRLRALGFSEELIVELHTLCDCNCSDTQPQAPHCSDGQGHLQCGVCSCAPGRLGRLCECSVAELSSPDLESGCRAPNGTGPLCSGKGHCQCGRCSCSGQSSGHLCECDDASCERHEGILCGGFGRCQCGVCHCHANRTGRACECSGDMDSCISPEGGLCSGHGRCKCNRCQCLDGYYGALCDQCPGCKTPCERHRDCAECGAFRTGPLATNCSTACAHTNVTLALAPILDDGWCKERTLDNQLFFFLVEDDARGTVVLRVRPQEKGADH
- protocol description: Integrin α4β7—MAdCAM-1 ELISA competition assay
- Format: binding
- run conditions: read-out: ELISA a4b7 Assay IC50
Classification by IC50 follows these ranges: lower: < 40 nM; middle: ≥ 40 nM and < 100 nM; upper: ≥ 100 nM

>>> class_assignment("CC(C)C[C@@H]1NC(=O)CN(C)C(=O)[C@H](Cc2cccc3ccccc23)NC(=O)[C@@H]2CCCN2[C@H](C(=O)NC(C)(C)C)[C@H](C)NC(=O)[C@H]([C@@H](C)O)NC(=O)[C@H](CC(=O)O)NC1=O [Compound 117]")
"upper"
>>> class_assignment("CC(C)C[C@@H]1NC(=O)[C@H](CC2CCCCC2)NC(=O)[C@@H]2CCCN2[C@H](C(=O)NC(C)(C)C)[C@H](C)NC(=O)[C@H]([C@@H](C)O)NC(=O)[C@H](CC(=O)O)NC1=O [Compound 7]")
"upper"
>>> class_assignment("CC[C@H](C)[C@@H]1NC(=O)[C@H](CC(=O)O)NC(=O)[C@H](CC(C)C)NC(=O)C[C@H](CCCCN)NC(=O)[C@H](Cc2ccc(CN)cc2)NC(=O)[C@@H]2CCCN2[C@H](C(=O)NC(C)(C)C)[C@H](C)NC1=O [Compound 215]")
"lower"
>>> class_assignment("CC(C)C[C@@H]1NC(=O)c2ccc(-c3ccncc3)c(c2)CNC(=O)[C@H](Cc2ccc(O)cc2)NC(=O)[C@@H]2CCCN2[C@H](C(=O)NC(C)(C)C)[C@H](C)NC(=O)[C@H]([C@@H](C)O)NC(=O)[C@H](CC(=O)O)NC1=O [Compound 337]")
"middle"
>>> class_assignment("COc1ccc(C[C@@H]2NC(=O)[C@@H]3CCCN3[C@H](C(=O)NC(C)(C)C)[C@H](C)NC(=O)[C@H]([C@@H](C)O)NC(=O)[C@H](CC(=O)O)NC(=O)[C@H](CC(C)C)NC(=O)[C@H]3CCCN3C2=O)cc1OC [Compound 127]")
"lower"
>>> class_assignment("CC[C@H](C)[C@@H]1NC(=O)[C@H](CC(=O)O)NC(=O)[C@H](CC(C)C)NC(=O)C[C@@H](CCCCN)NC(=O)[C@H](Cc2ccccc2)NC(=O)[C@@H]2CCCN2[C@H](C(=O)NC(C)(C)C)[C@H](C)NC1=O [Compound 220]")
"middle"
>>> class_assignment("CC(C)C[C@@H]1NC(=O)[C@@H]2c3ccccc3CN2C(=O)[C@@H]2CCCN2[C@H](C(=O)NC(C)(C)C)[C@H](C)NC(=O)[C@H]([C@@H](C)O)NC(=O)[C@H](CC(=O)O)NC1=O [Compound 99]")
"middle"
